Measured values drawn from PubChem BioAssay (NCI) for this set.

test system: SW-620 colon; test: NCI tumour cell line growth inhibition, 48 h
readout name: TGI

Examples with answers:
| molecule | TGI |
| --- | --- |
| CCOC(=O)Cc1nc2cc(F)c(F)cc2[nH]c1=O | > 100 µM |
| Cc1cc2nc(C=C(C(F)(F)F)C(F)(F)F)oc2cc1C | 3.42 µM |
| O=c1cc(NCC(O)CN2CCCC2)n(Cc2ccccc2)c(=O)n1Cc1ccccc1 (stereo not given) | > 100 µM |

Entry COC(=O)C12CC3CC(CC(C(=O)O)(C3)C1)C2 needs its TGI filled in; supply it. > 100 µM

Entry O=C1NC2O[C@H](CNC(=O)c3cc(Br)c[nH]3)CC2(O)N1 (mixture of isomers) needs its TGI filled in; supply it. > 100 µM

---

tested on: COLO 205 colon; test: NCI tumour cell line growth inhibition, 48 h
readout name: TGI

Examples with answers:
| compound | TGI |
| --- | --- |
| CC1CC2=C(S(=O)(=O)c3ccccc3)CC(S(=O)(=O)c3ccccc3)(S(=O)(=O)c3ccccc3)CC21 (stereo not drawn) | > 100 µM |
| COc1ccc(CN2CC(C)(C)C2=O)c(OC)c1 | > 100 µM |

// fetch TGI; item: O=C1NC2O[C@H](CNC(=O)c3cc(Br)c[nH]3)CC2(O)N1 (mixture of isomers) ; system: COLO 205 colon > 100 µM

---

test system: NCI/ADR-RES ovarian; assay: NCI tumour cell line growth inhibition, 48 h
readout name: TGI

| compound | TGI |
| --- | --- |
| CCO/C=N\C1=C(C#N)SC2=N/C(=C\c3ccc(OC)cc3)C(=O)N21 | > 100 µM |
| CCOP(=O)(OCC)C(c1ccc(F)cc1)N(C(=O)NC(F)(F)F)c1cccc(C(F)(F)F)c1 (configuration not stated) | > 100 µM |
| C[C@@H]1Nc2cc(NC(=O)OCCF)nc(N)c2N=C1c1ccccc1 | < 0.0001 µM |
| CN(C(=O)Cc1cccc(N=C=S)c1)[C@H]1CCCC[C@@H]1N1CCCC1 | 79.8 µM |
| C/C(=N\Nc1ccc(Cl)cn1)c1ccc2ccccc2n1 | > 100 µM |

Entry COCc1nc2c(OC)c(-c3nc4nc(N5CCN(C)CC5)ccc4[nH]3)cc(OC)c2n1C needs its TGI filled in; supply it. > 100 µM

---

test system: A498 renal; assay: NCI tumour cell line growth inhibition, 48 h
# maps each entry to its TGI

Examples with answers:
| compound | TGI |
| --- | --- |
| N#Cc1[nH]c(=O)n(-c2ccccc2)c1N | > 10 µM |
| Clc1cc(Cl)c2ns[s+]c2c1Cl | > 100 µM |
| O=c1cc(-c2ccc(Oc3ccccc3)cc2)[nH]c2cc3c(cc12)OCO3 | > 100 µM |
| NS(=O)(=O)c1ccc(-c2ccc3c(NC(=O)C4CC4)n[nH]c3c2)cc1 | > 25 µM |
| C=CCCC1(CC(Sc2ccccc2)P(=O)(c2ccccc2)c2ccccc2)OCCO1 (stereo not given) | > 10 µM |

// fetch TGI; item: CCN(CC)CCSc1c2cc(OC)ccc2nc2ccc(OC)cc12 ; system: A498 renal 51.5 µM

// fetch TGI; item: COC(=O)C12CC3CC(CC(C(=O)O)(C3)C1)C2 ; system: A498 renal > 100 µM

// fetch TGI; item: O=C(/C=C/c1ccc(Cl)c(Cl)c1)c1ccc2ccccc2c1 ; system: A498 renal > 100 µM

// fetch TGI; item: CCOC(=O)C1CCN(S(=O)(=O)/N=C2/NC(=O)NC2=C(Cl)Cl)CC1 ; system: A498 renal 12.1 µM

// fetch TGI; item: Cc1ccc(N=C/C=C(\Nc2ccc(C)cc2)c2ccc(Cl)cc2)cc1 ; system: A498 renal 34.1 µM
